experiment: qHTS to identify inhibitors of the type 1 interferon - major histocompatibility complex class I in skeletal muscle: primary screen against the NCATS Mechanism Interrogation Plate v5.0 (MIPE) Libary (AID 1347411); details: iHSKM cells + IFN-b, HiBiT-tagged MHC-I luminescence, 24 h; series mostly up to 45.8 µM; also: nearly all actives have a fitted effect of over 65% in size; also: potency is read from the fitted curve at half-maximal effect
Inconclusive results are not listed. Calls of active or inactive are those of the source. Calls follow the shape of the dose curve; as a rule, active = well fitted inhibition curve with a large enough effect; inconclusive = small, poorly fitted or top-dose-only effect; inactive = no such curve, though single readings can be large or run the other way.
readout name: Potency

>>> result("COc1ccc(C(=O)CC(=O)c2ccc(C(C)(C)C)cc2)cc1")
"inactive"
>>> result("CCCCOc1ccc(CC(=O)NO)cc1")
"inactive"
>>> result("C[C@@H]1CN(c2c(F)c(N)c3c(=O)c(C(=O)O)cn(C4CC4)c3c2F)C[C@H](C)N1")
"inactive"
>>> result("NC(=O)c1cccnc1")
"inactive"
>>> result("CN(C)CCc1c[nH]c2ccc(CS(=O)(=O)N3CCCC3)cc12")
"inactive"
>>> result("CNNCc1ccc(C(=O)NC(C)C)cc1")
"inactive"
>>> result("CC(=O)[C@H]1CC[C@H]2[C@@H]3CC=C4C[C@@H](O)CC[C@]4(C)[C@H]3CC[C@]12C")
"inactive"
>>> result("CCCc1cc(C(N)=S)ccn1")
"inactive"
>>> result("COc1c(N2CCNC(C)C2)c(F)cc2c(=O)c(C(=O)O)cn(C3CC3)c12 (centres undefined)")
"inactive"
>>> result("OC(Cn1cncn1)(Cn1cncn1)c1ccc(F)cc1F")
"inactive"

# lookup: Potency of COc1cc2ncnc(Nc3cccc(Cl)c3)c2cc1OC 29.4 µM (active)

What value of Potency has been reported for the following molecule? O=S(=O)(c1cccc2cnccc12)N1CCCNCC1 inactive

Need Potency, item CCCc1nc(C)c2c(=O)[nH]c(-c3cc(S(=O)(=O)N4CCN(CC)CC4)ccc3OCC)nn12 inactive

Can you look up the measured Potency of Nc1nc(N)c2nc(CNc3ccc(C(=O)NC(CCC(=O)O)C(=O)O)cc3)cnc2n1 (centres undefined) for me? inactive

Record request: Potency value, item CCC(C)(C)c1ccc(CC(C)CN2C[C@@H](C)O[C@@H](C)C2)cc1 (some centres undefined) inactive

Give its Potency value. Item: CCOC(=O)[C@H](CCc1ccccc1)N[C@H]1CS[C@H](c2cccs2)CN(CC(=O)O)C1=O inactive

Which Potency is reported for this molecule? CNC1CCCN(c2c(F)cc3c(=O)c(C(=O)O)cn(C4CC4)c3c2OC)C1 (centres undefined) inactive

Look at this molecule and give its reported Potency. CC(C)Cn1cnc2c(N)nc3ccccc3c21 inactive

I would be grateful if you could share the reported Potency for CCC(=O)O[C@]1(C(=O)CCl)[C@@H](C)C[C@H]2[C@@H]3CCC4=CC(=O)C=C[C@]4(C)[C@@]3(F)[C@@H](O)C[C@@]21C . inactive

What value of Potency has been reported for the following molecule? CCCCCCNC(=O)n1cc(F)c(=O)[nH]c1=O inactive

----------
experiment: qHTS of pediatric cancer cell lines to identify multiple opportunities for drug repurposing: Primary screen for U-2 OS cells (AID 1347096); details: U-2 OS viability, CellTiter-Glo luminescence, 48 h; series mostly up to 46 µM; also: nearly all actives have a fitted effect of over 50% in size
Results filed as inconclusive are left out. Calls of active or inactive are those of the source. The call rests on the fitted dose curve; in most records, active means well fitted cell-killing curve with a large enough effect; inconclusive means small, poorly fitted or top-dose-only effect; inactive means flat fitted curve, though single readings scatter.
Choose one outcome from this list and give only that: T = active, F = inactive

Dear all, I need the recorded test outcome for C[C@]12C=CC(=O)C=C1CC[C@@H]1[C@@H]2C(=O)C[C@@]2(C)[C@H]1CC[C@]2(O)C(=O)CO , thank you. F

// param item: O=C(O)c1cccnc1 ; yields the recorded call F

Record lookup: outcome of this test for COc1cc(NCc2ccc3nc(N)nc(N)c3c2C)cc(OC)c1OC ? T

Fill in: this test's call for CC1(C)[C@H](C(=O)O)N2C(=O)C[C@H]2S1(=O)=O is ___ F

So what was the verdict on CN(CCOc1ccc(CC2SC(=O)NC2=O)cc1)c1ccccn1 (stereo not drawn) in this test? F

Each compound tested received a call. Report the one for CNCC[C@H](Oc1cccc2ccccc12)c1cccs1 . F

Called result for O=C(NCC1CN(c2ccc(N3CCOCC3=O)cc2)C(=O)O1)c1ccc(Cl)s1 (stereo not drawn) F

Could you please tell me the result logged for Cc1nnc(NS(=O)(=O)c2ccc(N)cc2)s1 in this assay? F

Short answer needed: outcome of this test for CCN1CCCC1CNC(=O)c1cc(S(N)(=O)=O)ccc1OC (stereo not drawn) ? F

Call for entry NC(=O)c1ccc2[nH]ccc2c1 : F

Could you check what this test reported for C1CCC(C(CC2CCCCN2)C2CCCCC2)CC1 (stereo not drawn) ? F

Please let me know the test result on file for CCN[C@H]1C[C@H](C)S(=O)(=O)c2sc(S(N)(=O)=O)cc21 . F

Could you check what this test reported for Cc1onc(-c2ccccc2Cl)c1C(=O)N[C@@H]1C(=O)N2[C@@H]1SC(C)(C)[C@@H]2C(=O)O ? F
